- System: full length human vWF (SEQ ID NO 7)
- PROCEDURE SUMMARY: dot blot KD determination and extent of binding, full length human vWF
- ASSAY CONDITIONS: Phase 3 modification; extent of aptamer binding at 100 nM full length human vWF
Oligonucleotides are written 5' to 3', each unit as a sugar letter and its base; * is a phosphorothioate linkage, no mark a phosphodiester; rarer units and linkages stand in square brackets, end groups in braces. Plain capitals give the bases only. [invdT] = inverted (3'-3') thymidine; d = 2'-deoxy (DNA); m = 2'-O-methyl
Could you label it Fulfilled if measured % binding @ 100 nM vWF is 30% or higher, and Not fulfilled otherwise?

ARC1363: ARC1361 with single phosphorothioate phosphate backbone modification (mGmCmGmUdG*dCdAmGmUmGmCmCmUmUmCmGmGmCdCmGdTmGdCdGdGdTmGmCdCmUdCdCmGmUdCmAmCmGmC[invdT]; aptamer) : Fulfilled
ARC1370: ARC1361 with single phosphorothioate phosphate backbone modification (mGmCmGmUdGdCdAmGmUmGmCmCmUmUmCmGmGmCdCmGdTmG*dCdGdGdTmGmCdCmUdCdCmGmUdCmAmCmGmC[invdT]; aptamer) : Not fulfilled

[in] Identify whether the reported % binding @ 100 nM vWF of the following substance is 30% or greater: ARC1380: ARC1361 with single phosphorothioate phosphate backbone modification (mGmCmGmUdGdCdAmGmUmGmCmCmUmUmCmGmGmCdCmGdTmGdCdGdGdTmGmCdCmUdCdCmGmU*dCmAmCmGmC[invdT])
[out] Fulfilled

[in] Identify whether the reported % binding @ 100 nM vWF of the following substance is 30% or greater: ARC1366: ARC1361 with single phosphorothioate phosphate backbone modification (mGmCmGmUdGdCdAmGmUmGmCmCmUmUmCmGmGmC*dCmGdTmGdCdGdGdTmGmCdCmUdCdCmGmUdCmAmCmGmC[invdT]; aptamer)
[out] Not fulfilled

[in] Identify whether the reported % binding @ 100 nM vWF of the following substance is 30% or greater: ARC1378: ARC1361 with single phosphorothioate phosphate backbone modification (mGmCmGmUdGdCdAmGmUmGmCmCmUmUmCmGmGmCdCmGdTmGdCdGdGdTmGmCdCmUdC*dCmGmUdCmAmCmGmC[invdT]; aptamer)
[out] Fulfilled

====

- Tested on: full length human vWF (SEQ ID NO 7)
- PROCEDURE SUMMARY: dot blot KD determination and extent of binding, full length human vWF;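 also: dot blot binding of aptamers to full length human vWF across a protein titration, incubated 30 minutes at room temperature in 1x DPBS with BSA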
- ASSAY CONDITIONS: Phase 1 modification; extent of aptamer binding at 100 nM full length human vWF
Oligonucleotides are written 5' to 3', each unit as a sugar letter and its base; * is a phosphorothioate linkage, no mark a phosphodiester; rarer units and linkages stand in square brackets, end groups in braces. Plain capitals give the bases only. [invdT] = inverted (3'-3') thymidine; d = 2'-deoxy (DNA); m = 2'-O-methyl
Here the recorded % binding @ 100 nM vWF is given for each entry.
Report only the number, with the unit % understood.

ARC1223: ARC1172 with one residue replaced by 2'-O methyl residue (dGdGdCdGdTdGdCdAdGdTdGdCdCdTdTdCdGdGdCdCdGdTdGdCdGdGdTdGdCmCdTdCdCdGdTdCdAdCdGdCdC[invdT]; aptamer) : 26
ARC1197: ARC1172 with one residue replaced by 2'-O methyl residue (DNA dGdGdCmGdTdGdCdAdGdTdGdCdCdTdTdCdGdGdCdCdGdTdGdCdGdGdTdGdCdCdTdCdCdGdTdCdAdCdGdCdC[invdT]; aptamer) : 46
ARC1203: ARC1172 with one residue replaced by 2'-O methyl residue (DNA dGdGdCdGdTdGdCdAdGmUdGdCdCdTdTdCdGdGdCdCdGdTdGdCdGdGdTdGdCdCdTdCdCdGdTdCdAdCdGdCdC[invdT]; aptamer) : 40
ARC1221: ARC1172 with one residue replaced by 2'-O methyl residue (dGdGdCdGdTdGdCdAdGdTdGdCdCdTdTdCdGdGdCdCdGdTdGdCdGdGdTmGdCdCdTdCdCdGdTdCdAdCdGdCdC[invdT]; aptamer) : 43
ARC1217: ARC1172 with one residue replaced by 2'-O methyl residue (DNA dGdGdCdGdTdGdCdAdGdTdGdCdCdTdTdCdGdGdCdCdGdTdGmCdGdGdTdGdCdCdTdCdCdGdTdCdAdCdGdCdC[invdT]; aptamer) : 18

[in] Answer with reported % binding @ 100 nM vWF of ARC1194: ARC1172 with one residue replaced by 2'-O methyl residue (DNA mGdGdCdGdTdGdCdAdGdTdGdCdCdTdTdCdGdGdCdCdGdTdGdCdGdGdTdGdCdCdTdCdCdGdTdCdAdCdGdCdC[invdT]; aptamer)
[out] 46

[in] Answer with reported % binding @ 100 nM vWF of ARC1232: ARC1172 with one residue replaced by 2'-O methyl residue (dGdGdCdGdTdGdCdAdGdTdGdCdCdTdTdCdGdGdCdCdGdTdGdCdGdGdTdGdCdCdTdCdCdGdTdCdAdCmGdCdC[invdT]; aptamer)
[out] 51

[in] Answer with reported % binding @ 100 nM vWF of ARC1227: ARC1172 with one residue replaced by 2'-O methyl residue (dGdGdCdGdTdGdCdAdGdTdGdCdCdTdTdCdGdGdCdCdGdTdGdCdGdGdTdGdCdCdTdCdCmGdTdCdAdCdGdCdC[invdT]; aptamer)
[out] 40
